- tested_on: MT1 (Homo sapiens, UniProt P48039)
- Construct: expressed in transfected cells; host or cells: HEK293T (ATCC CRL-11268), transient transfection
- Sequence (P48039 whole entry): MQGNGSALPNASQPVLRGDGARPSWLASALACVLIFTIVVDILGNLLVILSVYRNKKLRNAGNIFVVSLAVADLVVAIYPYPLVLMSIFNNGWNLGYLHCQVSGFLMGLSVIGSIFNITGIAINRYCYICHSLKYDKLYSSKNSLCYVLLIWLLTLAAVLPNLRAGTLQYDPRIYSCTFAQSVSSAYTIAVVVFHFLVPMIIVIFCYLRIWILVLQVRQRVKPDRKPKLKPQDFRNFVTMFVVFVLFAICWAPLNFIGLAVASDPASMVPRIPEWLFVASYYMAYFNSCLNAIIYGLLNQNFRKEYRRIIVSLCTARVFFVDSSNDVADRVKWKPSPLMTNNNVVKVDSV
- protocol: GloSensor Gi/o-mediated cAMP production inhibition assay, MT1
- Format: cell-based
- conditions: Gi/o mediated; read-out: MT1 EC50
measured_property: log10 of EC50 (log10 of the value in nM)
Hello, just confirming the data are log10 of EC50 with units of nM.

Prompt line: log10 of EC50 lookup needed for COc1cccc([C@@H]2C[C@H]2CNC(=O)C(N)=O)c1 (racemic) [Compound 23] , thanks.
Response line: 1.76

Prompt line: Same again, this time with COc1cccc(CNC(=O)c2ccno2)c1 [Compound 57]
Response line: 3.25

Prompt line: Same again, this time with CC(=O)NCC1CCCCN1c1ccnc(C)n1 (centres unmarked) [Compound 29]
Response line: 2.16

Prompt line: Same again, this time with COC(=O)c1[nH]c2cc(OC)ccc2c1N [Compound 54]
Response line: 2.87

Prompt line: Same again, this time with COc1ccnc(N(C)CCNC(C)=O)n1 [Compound 21]
Response line: 1.08
